Data origin, for the record: PubChem BioAssay (NCI)

Tested on: 786-0 renal
Experiment: NCI tumour cell line growth inhibition, 48 h
quantity_measured: TGI (µM)
Response body: numeric value in µM, unit text excluded.

**Q:** Return reported TGI. Input molecule: N=C(N)SCc1nc(-c2ccc(Cl)cc2)no1
**A:** 29.3

**Q:** Return reported TGI. Input molecule: CCCCCCCCCCCCCCNCC(OC)OC
**A:** 31

**Q:** Return reported TGI. Input molecule: N#C/C(=C\c1ccc[nH]1)c1cc(-c2ccc(Cl)cc2)nn1-c1ccccc1
**A:** 27.5

**Q:** Return reported TGI. Input molecule: COC(=O)N[C@@H]1C[C@H]2CC[C@]1(O[Si](C(C)C)(C(C)C)C(C)C)C(=O)C2
**A:** 69

**Q:** Return reported TGI. Input molecule: O=C1OC(OC/C(Br)=C(\Br)COC2OC(=O)C(Cl)=C2Cl)C(Cl)=C1Cl (stereo not given)
**A:** 6.4

**Q:** Return reported TGI. Input molecule: O=C(Nc1ccc(Cl)c(Cl)c1)c1ccc(NC2=C(Cl)C(=O)N(Cc3ccccc3)C2=O)cc1
**A:** 20.1
